Here, each record is paired with measured Papp A→B at 2 h, 3 μM data.
# System: MDR1
# EXPERIMENT SUMMARY: MDCK-MDR1 permeability assay
# Type: in vitro ADME
# RECORDED CONDITIONS: dog, MDCK-MDR1, MDCK-MDR1 cells; test compound 3 μM; 2 hours at 37 degrees C; apical to basolateral
METRIC NAME: Papp A→B at 2 h, 3 μM (×10⁻⁶ cm/s)

>>> measured_number("O=C1COc2ccccc2[C@H]2CC[C@H](CC2)OCC2[C@@H](NS(=O)(=O)C3COC3)CCCN12 (stereo in doubt)")
0.79
>>> measured_number("Cc1ccnc2c1[C@H]1CC[C@H](CC1)OCC1[C@@H](NS(=O)(=O)C3CCOC3)CCCN1C(=O)CO2 (stereo in doubt)")
0.56
>>> measured_number("O=C1COc2ccccc2C2CCC(CC2)OC[C@H]2[C@@H](NS(=O)(=O)C(F)F)CCCN12 (stereo in doubt)")
1.4
>>> measured_number("CC1(S(=O)(=O)N[C@H]2CCCN3CCOc4ccccc4[C@H]4CC[C@H](CC4)OCC23)CC1 (stereo in doubt)")
1.4
>>> measured_number("O=C1COc2ccccc2[C@H]2CC[C@H](CC2)OCC2[C@@H](NS(=O)(=O)CC3CC3)CCCN12 (stereo in doubt)")
0.56
>>> measured_number("Cc1c(Cl)ccc2c1[C@H]1CC[C@H](CC1)OCC1[C@@H](NS(=O)(=O)C(C)C)CCCN1C(=O)CO2 (stereo in doubt)")
0.43
>>> measured_number("Cc1ncnc2c1[C@H]1CC[C@H](CC1)OCC1[C@@H](NS(C)(=O)=O)CCN1C(=O)CO2 (stereo in doubt)")
0.58
>>> measured_number("O=C1COc2ncccc2[C@H]2CC[C@H](CC2)OCC2[C@@H](NS(=O)(=O)C(F)(F)F)CCCN12 (stereo in doubt)")
0.96
>>> measured_number("CC[C@H](C)S(=O)(=O)N[C@H]1CCCN2C(=O)COc3ccccc3C3CCC(CC3)OC[C@@H]12 (stereo in doubt)")
0.8
>>> measured_number("CS(=O)(=O)N[C@H]1CCCN2C(=O)COc3ccc(C#N)cc3[C@H]3CC[C@H](CC3)OCC12 (stereo in doubt)")
0.18
>>> measured_number("CC(C)(O)C(=O)N1CC[C@H](NS(C)(=O)=O)[C@@H]1Cc1cccc(-c2cc(F)cc(F)c2)c1F [Reference Compound B, reference compound]")
0.21
>>> measured_number("Cc1cccc2c1OCC(=O)N1CCC[C@H](NS(C)(=O)=O)C1CO[C@H]1CC[C@@H]2CC1 (stereo in doubt)")
0.23
>>> measured_number("CCS(=O)(=O)N[C@H]1CCCN2CCOc3ccccc3[C@H]3CC[C@H](CC3)OCC12 (stereo in doubt)")
5.6
>>> measured_number("Cc1ccc2c(c1)OCCN1CCC[C@H](NS(C)(=O)=O)C1CO[C@H]1CC[C@@H]2CC1 (stereo in doubt)")
9.6
>>> measured_number("O=C1COc2cccc(F)c2[C@H]2CC[C@H](CC2)OCC2[C@@H](NS(=O)(=O)C3CC3)CCCN12 (stereo in doubt)")
0.62
>>> measured_number("O=S(=O)(N[C@H]1CCCN2CCOc3ccccc3[C@H]3CC[C@H](CC3)OCC12)C1CC1 (stereo in doubt)")
7.8
>>> measured_number("CC(C)S(=O)(=O)N[C@H]1CCCN2C(=O)COc3ccccc3C3CCC(CC3)OC[C@@H]12 (stereo in doubt)")
1.8
>>> measured_number("Cc1ccc2c(c1)C1CCC(CC1)OC[C@H]1[C@@H](NS(=O)(=O)C(C)C)CCCN1C(=O)CO2 (stereo in doubt)")
0.83
>>> measured_number("CC[C@@H](C)S(=O)(=O)N[C@H]1CCCN2C(=O)COc3ccccc3C3CCC(CC3)OC[C@@H]12 (stereo in doubt)")
0.62
>>> measured_number("Cc1cccc2c1OCCN1CCC[C@H](NS(C)(=O)=O)C1CO[C@H]1CC[C@@H]2CC1 (stereo in doubt)")
8.6
>>> measured_number("O=C1COc2ccc(Cl)cc2C2CCC(CC2)OC[C@H]2[C@@H](NS(=O)(=O)C3CC3)CCCN12 (stereo in doubt)")
0.2
>>> measured_number("Cc1cccc2c1[C@H]1CC[C@H](CC1)OCC1[C@@H](NS(=O)(=O)C(C)C)CCN1C(=O)CO2 (stereo in doubt)")
5.7

###

Here, each record is paired with measured hepatocyte CLint at 1 μM data.
# EXPERIMENT SUMMARY: Hepatocytes stability assay (human hepatocytes)
# Assay type: in vitro ADME
# RECORDED CONDITIONS: both sexes, human, cryopreserved hepatocytes, cryopreserved human hepatocytes (pool of 50 mixed gender); 1 μM test compound; 1×10^6 cell/mL; 37 degrees C; read-out: CLint (μL/min/million cells)
# Protocol: In vitro metabolic stability was assessed using cryopreserved hepatocytes from male Sprague Dawley rats and a pool of 50 mixed gender humans (BioIVT, Baltimore, MD). […] Data was calculated as percent remaining by assuming zero-minute time point peak area ratio (analyte/IS) as 100% and dividing remaining time point peak area ratios by zero-minute time point peak area ratio. […] From a plot of log (ln) peak area against time, the slope of the line was determined. […]
METRIC NAME: hepatocyte CLint at 1 μM

>>> result("CC(C)S(=O)(=O)N[C@H]1CCCN2CCOc3ncccc3[C@H]3CC[C@H](CC3)OCC12 (stereo in doubt)")
"46 µL/min/1e6 cells"
>>> result("CS(=O)(=O)N[C@H]1CCCN2C(=O)COc3ccc(C#N)cc3[C@H]3CC[C@H](CC3)OCC12 (stereo in doubt)")
"2.8 µL/min/1e6 cells"
>>> result("O=C1COc2ncccc2[C@H]2CC[C@H](CC2)OCC2[C@@H](NS(=O)(=O)C(F)(F)F)CCCN12 (stereo in doubt)")
"4.8 µL/min/1e6 cells"

###

# EXPERIMENT SUMMARY: Hepatocytes stability assay (human hepatocytes)
# Type: in vitro ADME
# RECORDED CONDITIONS: both sexes, human, cryopreserved hepatocytes, cryopreserved human hepatocytes (pool of 50 mixed gender); 1 μM test compound; 1×10^6 cell/mL; 37 degrees C; read-out: CLint (μL/min/million cells)
METRIC NAME: hepatocyte CLint at 1 μM (µL/min/1e6 cells)

>>> measured_number("O=C1COc2cccc(F)c2[C@H]2CC[C@H](CC2)OCC2[C@@H](NS(=O)(=O)C3CC3)CCCN12 (stereo in doubt)")
15
>>> measured_number("CC1(S(=O)(=O)N[C@H]2CCCN3C(=O)COc4ccccc4C4CCC(CC4)OC[C@@H]23)CC1 (stereo in doubt)")
31
>>> measured_number("Cc1ccnc2c1[C@H]1CC[C@H](CC1)OCC1[C@@H](NS(=O)(=O)C3CC3)CCCN1C(=O)CO2 (stereo in doubt)")
21

###

# System: MDR1
# EXPERIMENT SUMMARY: MDCK-MDR1 permeability assay
# Assay type: in vitro ADME
# RECORDED CONDITIONS: dog, MDCK-MDR1, MDCK-MDR1 cells; test compound 3 μM; 2 hours at 37 degrees C; apical to basolateral
Here, each record is paired with measured Papp A→B at 2 h, 3 μM data.
METRIC NAME: Papp A→B at 2 h, 3 μM (×10⁻⁶ cm/s)

>>> measured_number("C[C@@H](C(F)(F)F)S(=O)(=O)N[C@H]1CCCN2C(=O)COc3ccccc3C3CCC(CC3)OC[C@@H]12 (stereo in doubt) [Compound 24]")
0.65
>>> measured_number("CC(C)(C)S(=O)(=O)N[C@H]1CCCN2CCOc3ccccc3[C@H]3CC[C@H](CC3)OCC12 (stereo in doubt) [Compound 56]")
1.7
>>> measured_number("O=C1COc2ccccc2C2CCC(CC2)OC[C@H]2[C@@H](NS(=O)(=O)CF)CCCN12 (stereo in doubt) [Compound 6]")
1
>>> measured_number("O=C1COc2ccccc2[C@H]2CC[C@H](CC2)OCC2[C@@H](NS(=O)(=O)C3CCCC3)CCCN12 (stereo in doubt) [Compound 33]")
0.55
>>> measured_number("Cc1ccc2c(c1)C1CCC(CC1)OC[C@H]1[C@@H](NS(C)(=O)=O)CCCN1C(=O)CO2 (stereo in doubt) [Compound 17]")
0.84
>>> measured_number("O=C1COc2ccccc2C2CCC(CC2)OC[C@H]2[C@@H](NS(=O)(=O)C3CC3)CCCN12 (stereo in doubt) [Compound 1]")
1.6
>>> measured_number("Cc1ccc2c(c1C)[C@H]1CC[C@H](CC1)OCC1[C@@H](NS(C)(=O)=O)CCCN1C(=O)CO2 (stereo in doubt) [Compound 78]")
0.41
>>> measured_number("Cc1ccnc2c1[C@H]1CC[C@H](CC1)OCC1[C@@H](NS(=O)(=O)C(F)(F)F)CCN1C(=O)CO2 (stereo in doubt) [Compound 94]")
8.7
>>> measured_number("O=C1COc2nccnc2[C@H]2CC[C@H](CC2)OCC2[C@@H](NS(=O)(=O)C(F)(F)F)CCCN12 (stereo in doubt) [Compound 98]")
0.52
>>> measured_number("CC(C)(C)S(=O)(=O)N[C@H]1CCCN2C(=O)COc3ccccc3[C@H]3CC[C@H](CC3)OCC12 (stereo in doubt) [Compound 44]")
2
